TARGET_ENTITY: SMARCA2 (Homo sapiens, UniProt P51531)
Sequence (P51531 whole entry): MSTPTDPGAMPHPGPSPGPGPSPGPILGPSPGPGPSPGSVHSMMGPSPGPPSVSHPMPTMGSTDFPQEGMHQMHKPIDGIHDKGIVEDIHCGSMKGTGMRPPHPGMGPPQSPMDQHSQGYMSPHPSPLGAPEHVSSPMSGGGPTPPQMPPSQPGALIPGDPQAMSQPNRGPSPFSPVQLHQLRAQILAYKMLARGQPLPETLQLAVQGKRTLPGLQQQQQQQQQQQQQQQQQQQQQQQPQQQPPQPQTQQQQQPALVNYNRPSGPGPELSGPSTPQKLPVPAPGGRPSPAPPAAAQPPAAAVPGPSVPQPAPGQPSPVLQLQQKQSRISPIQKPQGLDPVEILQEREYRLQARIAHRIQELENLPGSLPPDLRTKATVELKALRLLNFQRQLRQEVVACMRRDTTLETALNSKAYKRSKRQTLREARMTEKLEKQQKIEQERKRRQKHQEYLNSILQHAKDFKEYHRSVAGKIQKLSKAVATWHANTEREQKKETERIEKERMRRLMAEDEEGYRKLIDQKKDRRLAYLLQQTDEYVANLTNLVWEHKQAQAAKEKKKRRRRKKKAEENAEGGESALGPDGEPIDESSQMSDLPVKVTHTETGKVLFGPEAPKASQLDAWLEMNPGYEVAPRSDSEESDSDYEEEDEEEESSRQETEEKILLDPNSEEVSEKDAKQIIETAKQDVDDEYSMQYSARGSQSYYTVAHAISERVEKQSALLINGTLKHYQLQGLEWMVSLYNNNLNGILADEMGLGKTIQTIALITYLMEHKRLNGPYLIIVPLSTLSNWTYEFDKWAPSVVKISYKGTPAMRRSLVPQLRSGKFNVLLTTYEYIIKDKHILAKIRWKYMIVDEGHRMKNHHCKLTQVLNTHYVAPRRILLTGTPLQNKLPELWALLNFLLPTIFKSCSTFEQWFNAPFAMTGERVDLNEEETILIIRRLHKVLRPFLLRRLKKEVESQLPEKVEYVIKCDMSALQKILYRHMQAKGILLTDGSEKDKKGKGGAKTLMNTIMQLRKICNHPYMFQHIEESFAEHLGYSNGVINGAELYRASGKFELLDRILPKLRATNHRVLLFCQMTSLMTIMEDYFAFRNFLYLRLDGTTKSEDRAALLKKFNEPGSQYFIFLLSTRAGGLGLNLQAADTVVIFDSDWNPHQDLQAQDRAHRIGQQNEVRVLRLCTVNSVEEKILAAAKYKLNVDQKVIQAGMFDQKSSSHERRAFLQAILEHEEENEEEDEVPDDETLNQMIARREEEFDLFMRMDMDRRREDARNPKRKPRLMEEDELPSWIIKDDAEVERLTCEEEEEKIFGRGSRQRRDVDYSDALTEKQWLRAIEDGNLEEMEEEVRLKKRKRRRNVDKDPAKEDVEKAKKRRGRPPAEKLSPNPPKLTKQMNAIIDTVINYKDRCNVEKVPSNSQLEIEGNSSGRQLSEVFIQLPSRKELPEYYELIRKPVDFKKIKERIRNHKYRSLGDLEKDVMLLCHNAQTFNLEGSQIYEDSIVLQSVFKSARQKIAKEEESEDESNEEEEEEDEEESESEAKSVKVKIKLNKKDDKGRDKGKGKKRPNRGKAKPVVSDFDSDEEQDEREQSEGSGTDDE
RUN_DESCRIPTION: SMARCA2 degradation in H929 cells by Western blot
Type: cell-based
Design: endogenous in cells
MEASUREMENT_CONDITIONS: 16 hours
EXPERIMENTAL_ENDPOINT: SMARCA2 Percent degradation @ 100 nM (%)

compound=Cc1ncsc1-c1ccc([C@H](C)NC(=O)[C@@H]2C[C@@H](O)CN2C(=O)[C@@H](NC(=O)CCCCCCCCCC(=O)N2CCN(c3cc(-c4ccccc4O)nnc3N)CC2)C(C)(C)C)cc1 endpoint_result=99
compound="Cc1ncsc1-c1ccc([C@H](C)NC(=O)[C@@H]2C[C@@H](O)CN2C(=O)[C@@H](NC(=O)C(C)C2CCN(c3cc(-c4cccc(F)c4O)nnc3N)CC2)C(C)(C)C)cc1 (single isomer, unassigned) [Compound 83]" endpoint_result=100
compound=Cc1ncsc1-c1ccc([C@H](C)NC(=O)[C@@H]2C[C@@H](O)CN2C(=O)[C@@H](NC(=O)CN2CCN(c3cc(-c4ccccc4F)nnc3N)CC2)C(C)(C)C)cc1 endpoint_result=93

1. Cc1ncsc1-c1ccc([C@H](C)NC(=O)[C@@H]2C[C@@H](O)CN2C(=O)[C@@H](NC(=O)C(C)(C)N2CCN(c3cc(-c4ccccc4O)nnc3N)CC2)C(C)(C)C)cc1
2. Cc1ncsc1-c1ccc([C@H](C)NC(=O)[C@@H]2C[C@@H](O)CN2C(=O)[C@H](C)NC(=O)CN2CCN(c3cc(-c4ccccc4O)nnc3N)CC2)cc1
3. CC(=O)O[C@@H]1C[C@@H](C(=O)NCc2ccc(-c3scnc3C)cc2)N(C(=O)[C@@H](NC(=O)CN2CCN(c3cc(-c4ccccc4O)nnc3N)CC2)C(C)(C)C)C1
[Q] Please list these compounds in decreasing order of SMARCA2 Percent degradation @ 100 nM. # respond with the labels, arranged in the requested order
[A] 1, 2, 3
(1: 83%, 2: 20.2%, 3: 5.4%)

====

TARGET_ENTITY: SMARCA2 (Homo sapiens, UniProt P51531)
RUN_DESCRIPTION: SMARCA2 degradation in NCI-H838 cells by Western blot
Assay type: cell-based
Set-up: endogenous in cells; host or cells: NCI-H838 (ATCC CRL-5844)
MEASUREMENT_CONDITIONS: 16 hours
EXPERIMENTAL_ENDPOINT: SMARCA2 @ 100 nM (% SMARCA2 degradation) (%)

A. Cc1ncsc1-c1ccc([C@H](C)NC(=O)[C@@H]2C[C@@H](O)CN2C(=O)[C@@H](NC(=O)CC2CCN(c3cc(-c4ccccc4O)nnc3N)CC2)C(C)(C)C)cc1
B. CNC(=O)c1cc(N2CCN(CC(=O)N[C@H](C(=O)N3C[C@H](O)C[C@H]3C(=O)N[C@@H](C)c3ccc(-c4scnc4C)cc3)C(C)(C)C)CC2)c(N)nn1
C. Cc1ncsc1-c1ccc([C@H](C)NC(=O)[C@@H]2C[C@@H](O)CN2C(=O)[C@@H](NC(=O)CN2CCC(c3cc(-c4ccccc4O)nnc3N)CC2)C(C)(C)C)cc1
[Q] Provide the items ranked by increasing SMARCA2 @ 100 nM (% SMARCA2 degradation). # respond with the labels, arranged in the requested order
[A] B, C, A
(B: 12%, C: 34%, A: 99%)
